// provenance: patent US20260174778A1

- assayed.system: KAT7 (Homo sapiens, UniProt O95251)
- Construct: purchased ACTIVE MOTIF 31889
- Sequence (O95251 whole entry): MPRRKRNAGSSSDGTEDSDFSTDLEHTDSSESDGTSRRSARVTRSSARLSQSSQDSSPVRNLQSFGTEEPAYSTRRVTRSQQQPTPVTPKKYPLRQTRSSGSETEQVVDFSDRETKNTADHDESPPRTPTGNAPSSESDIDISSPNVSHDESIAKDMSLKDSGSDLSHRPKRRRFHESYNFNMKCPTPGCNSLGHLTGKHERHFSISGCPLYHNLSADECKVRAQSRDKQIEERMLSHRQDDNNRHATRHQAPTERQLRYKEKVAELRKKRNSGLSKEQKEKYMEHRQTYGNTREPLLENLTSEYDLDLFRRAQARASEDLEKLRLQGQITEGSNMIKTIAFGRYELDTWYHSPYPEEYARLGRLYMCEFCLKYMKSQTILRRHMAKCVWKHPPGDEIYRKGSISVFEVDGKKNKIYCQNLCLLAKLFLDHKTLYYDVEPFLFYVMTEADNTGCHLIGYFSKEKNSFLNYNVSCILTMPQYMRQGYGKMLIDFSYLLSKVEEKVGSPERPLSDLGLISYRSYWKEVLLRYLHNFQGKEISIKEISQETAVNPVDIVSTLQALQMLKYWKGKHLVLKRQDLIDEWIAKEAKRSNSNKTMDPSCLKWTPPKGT
- assay.text: Inhibition of human KAT enzymes, radioisotope method: KAT7
- Assay type: biochemical
- reported.conditions: selectivity, ratio of Ki
- Method: Test Example 2: Selective Inhibitory Effects of Test Compounds on Human KAT6 Enzymes (Radioisotope Method) • 1. KAT6A (ACTIVE MOTIF, Cat. No. 81223) • 2. KAT5 (BPS, Cat. No. 79422) • 3. KAT7 (ACTIVE MOTIF, Cat. No. 31889) • 4. KAT6B (ACTIVE MOTIF, Cat. No. 81224) • 5. […] • 1. […] The plates were incubated at room temperature for at least 60 min and then • 8. read using MicroBeta2. Raw data were obtained in EXCEL, and the inhibition rates were calculated: […]
property.name: KAT7/ KAT6A

{"compound": "COc1ccc2c(c1S(=O)(=O)Nc1noc3cc(Cn4cccn4)c(F)c(OC)c13)OCCN2C(C)=O", "KAT7/ KAT6A": 223}

I. COc1ccc2c(c1S(=O)(=O)Nc1noc3cc(Cn4cccn4)c(F)c(OC)c13)OCCO2
II. COc1ccc2c(c1S(=O)(=O)Nc1noc3cc(Cn4cccn4)c(F)c(OC)c13)OCCN2C
Q: Sorting by KAT7/ KAT6A in descending order, would I or II appear first? Write down the label attached to your selection.
A: I

* * *

- assayed.system: KAT5 (Homo sapiens)
- Construct: purchased BPS 79422
- Sequence (Q92993 whole entry): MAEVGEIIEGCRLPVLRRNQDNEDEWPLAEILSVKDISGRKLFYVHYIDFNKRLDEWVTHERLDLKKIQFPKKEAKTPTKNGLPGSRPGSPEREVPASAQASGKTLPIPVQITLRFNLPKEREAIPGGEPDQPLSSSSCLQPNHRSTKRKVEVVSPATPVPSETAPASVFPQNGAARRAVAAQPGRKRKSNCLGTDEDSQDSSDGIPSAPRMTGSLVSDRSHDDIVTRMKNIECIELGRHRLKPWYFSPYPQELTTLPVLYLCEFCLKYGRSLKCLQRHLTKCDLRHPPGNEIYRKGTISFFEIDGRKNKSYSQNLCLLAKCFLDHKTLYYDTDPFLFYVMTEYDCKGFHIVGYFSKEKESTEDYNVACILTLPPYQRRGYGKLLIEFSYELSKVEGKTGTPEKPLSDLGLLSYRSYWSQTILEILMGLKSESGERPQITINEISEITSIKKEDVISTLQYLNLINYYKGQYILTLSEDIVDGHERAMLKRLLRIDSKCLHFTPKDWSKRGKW
- assay.text: Inhibition of human KAT enzymes, radioisotope method: KAT5
- Assay type: biochemical
- reported.conditions: selectivity, ratio of Ki
property.name: KAT5/ KAT6A

Some compounds with known KAT5/ KAT6A results, for comparison:
{"compound": "COc1ccc2c(c1S(=O)(=O)Nc1noc3cc(Cn4cccn4)c(F)c(OC)c13)OCCN2C [Compound 109]", "assayed.system": "KAT5 (Homo sapiens)", "property.name": "KAT5/ KAT6A", "value.observed": 609}
{"compound": "COc1ccc2c(c1S(=O)(=O)Nc1noc3cc(Cn4cccn4)c(F)c(OC)c13)OCCN2C(C)=O [Compound 110]", "assayed.system": "KAT5 (Homo sapiens)", "property.name": "KAT5/ KAT6A", "value.observed": 3967}
{"compound": "COc1ccc2c(c1S(=O)(=O)Nc1noc3cc(Cn4cccn4)c(F)c(OC)c13)OCCCO2 [Compound 114]", "assayed.system": "KAT5 (Homo sapiens)", "property.name": "KAT5/ KAT6A", "value.observed": 4880}

1. COc1ccc2c(c1S(=O)(=O)Nc1noc3cc(Cn4cccn4)c(F)c(OC)c13)OCCN2S(C)(=O)=O [Compound 121]
2. COc1ccc2c(c1S(=O)(=O)Nc1noc3cc(Cn4cccn4)c(F)c(OC)c13)OCC=C2 [Compound 101]
Q: Sorting by KAT5/ KAT6A in descending order, would 1 or 2 appear first? Write down the label attached to your selection.
A: 1

I. COc1ccccc1S(=O)(=O)Nc1noc2cc(Cn3cccn3)cc(OC)c12 [PF-8144, reference compound]
II. COc1ccc2c(c1S(=O)(=O)Nc1noc3cc(Cn4cccn4)c(F)c(OC)c13)OCCCN2C [Compound 115]
III. COc1ccc2c(c1S(=O)(=O)Nc1noc3cc(Cn4cccn4)c(F)c(OC)c13)OCCO2 [Compound 28]
Q: Arrange these compounds by their KAT5/ KAT6A, starting with the largest number. Put the labels in the requested order and write them down.
A: II, III, I
